- Test system: Ba/F3 parental
- measurement.notes: Ba/F3 cell growth inhibition (CellTiter-Glo, 72 hours)
- Type: cell-based
- measurement.conditions: Mus musculus, BaF3, Ba/F3 parental cells, read-out: Ba/F3 GI50s (μM) parental
measurement.name: IC50

Known results for compounds:
Cc1ncsc1-c1ccc(CNC(=O)[C@@H]2C[C@@H](O)CN2C(=O)[C@@H](NC(=O)COCCN2CCN(c3ccc(Nc4ncc5ccc(-c6cccc(NS(C)(=O)=O)c6)n5n4)cc3)CC2)C(C)(C)C)cc1 [Example 83]    1 to 10 µM
O=C1CCCCCCOc2ccc(cc2)-c2ccc3cnc(nn23)Nc2ccc(cc2)N2CCN1CC2 [Example 24]    1 to 10 µM
CS(=O)(=O)Nc1cccc(-c2ccc3cnc(Nc4ccc(N5CCN(CCCCCCCOc6cccc7c6C(=O)N(C6CCC(=O)NC6=O)C7=O)CC5)cc4)nn23)c1 (stereo not drawn) [Example 41]    1 to 10 µM

Assay Ba/F3 parental, sample COc1cccc(NC(=O)N2CCCn3cc(cn3)Nc3ncc4ccc(n4n3)-c3ccc(cc3)OCC2)c1 [Example 7] , IC50 read: ≥ 10 µM

// compound Cc1ncsc1-c1ccc(CNC(=O)[C@@H]2C[C@@H](O)CN2C(=O)[C@@H](NC(=O)CCOCCOCCN2CCN(c3ccc(Nc4ncc5ccc(-c6cccc(NS(C)(=O)=O)c6)n5n4)cc3)CC2)C(C)(C)C)cc1 [Example 84] , assay Ba/F3 parental, IC50 value: 1 to 10 µM

Sample CS(=O)(=O)Nc1cccc(-c2ccc3cnc(Nc4ccc(N5CCN(CCCCCOc6cccc7c6C(=O)N(C6CCC(=O)NC6=O)C7=O)CC5)cc4)nn23)c1 (stereo not drawn) [Example 39] , system: Ba/F3 parental. Its IC50 is ≥ 10 µM

# IC50 measured on Ba/F3 parental for item CS(=O)(=O)N1CCCn2cc(cn2)Nc2ncc3ccc(n3n2)-c2ccc(cc2)OCC1 [Example 9] = 1 to 10 µM

Sample O=C1CCCCOc2ccc(cc2)-c2ccc3cnc(nn23)Nc2cnn(c2)C2CCN(CCCN1)CC2 [Example 26] , system: Ba/F3 parental. Its IC50 is ≥ 10 µM

Entry CN1CCCn2cc(cn2)Nc2ncc3ccc(n3n2)-c2ccc(cc2)OCC1 [Example 2] : IC50 on Ba/F3 parental = 1 to 10 µM

====

Parameter GI50: see the listing below.
- measured.target: Ba/F3 FLT3 (ITD/D835YF691L) (Homo sapiens, UniProt P36888, F691L/D835Y, cells depend on it, form not given)
- Sequence (P36888 1-993 F691L/D835Y): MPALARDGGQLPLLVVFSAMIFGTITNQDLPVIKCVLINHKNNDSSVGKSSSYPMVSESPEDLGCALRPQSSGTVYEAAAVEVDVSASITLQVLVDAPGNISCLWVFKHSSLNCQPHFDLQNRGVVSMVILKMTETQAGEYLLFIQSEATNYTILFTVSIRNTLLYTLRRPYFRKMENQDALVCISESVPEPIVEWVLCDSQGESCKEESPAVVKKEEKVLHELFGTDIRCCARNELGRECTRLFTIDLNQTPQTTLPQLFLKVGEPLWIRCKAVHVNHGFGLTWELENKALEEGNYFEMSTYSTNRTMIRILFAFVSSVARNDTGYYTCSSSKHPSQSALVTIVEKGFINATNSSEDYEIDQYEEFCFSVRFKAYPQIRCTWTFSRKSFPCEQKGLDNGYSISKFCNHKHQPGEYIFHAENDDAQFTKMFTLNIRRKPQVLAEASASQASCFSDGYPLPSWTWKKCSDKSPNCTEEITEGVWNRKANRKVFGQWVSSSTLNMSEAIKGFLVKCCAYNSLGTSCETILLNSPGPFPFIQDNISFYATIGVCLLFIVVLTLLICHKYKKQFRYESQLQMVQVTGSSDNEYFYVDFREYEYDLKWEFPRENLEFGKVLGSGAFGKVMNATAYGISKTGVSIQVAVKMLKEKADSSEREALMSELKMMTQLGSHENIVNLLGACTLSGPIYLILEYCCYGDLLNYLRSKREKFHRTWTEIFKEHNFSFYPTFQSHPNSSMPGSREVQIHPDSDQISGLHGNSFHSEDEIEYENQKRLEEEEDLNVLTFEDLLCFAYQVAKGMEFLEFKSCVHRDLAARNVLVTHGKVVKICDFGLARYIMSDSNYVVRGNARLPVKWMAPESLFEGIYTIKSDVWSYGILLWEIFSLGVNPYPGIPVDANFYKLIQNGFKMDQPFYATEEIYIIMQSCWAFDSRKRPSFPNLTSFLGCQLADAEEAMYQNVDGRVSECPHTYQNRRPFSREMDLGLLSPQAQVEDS
- measurement.notes: Ba/F3 cell growth inhibition (CellTiter-Glo, 72 hours)
- Format: cell-based
- measurement.conditions: read-out: Ba/F3 GI50s (μM) FLT3 (ITD/D835YF691L)

O=C1COCCOc2ccc(cc2)-c2ccc3cnc(nn23)Nc2ccc(cc2)OCCCN1    1 to 10 µM
CS(=O)(=O)Nc1cccc(-c2ccc3cnc(Nc4ccc(N5CCN(CCCCCCCCCCCOc6cccc7c6C(=O)N(C6CCC(=O)NC6=O)C7=O)CC5)cc4)nn23)c1 (stereo not drawn)    1 to 10 µM
Cc1ncsc1-c1ccc(CNC(=O)[C@@H]2C[C@@H](O)CN2C(=O)[C@@H](NC(=O)COCCN2CCN(c3ccc(Nc4ncc5ccc(-c6cccc(NS(C)(=O)=O)c6)n5n4)cc3)CC2)C(C)(C)C)cc1    ≥ 10 µM
O=C1CCCCOc2ccc(cc2)-c2ccc3cnc(nn23)Nc2cnn(c2)C2CCN(CCCN1)CC2    < 1 µM
O=C1CCCCCCn2cc(cn2)-c2ccc3cnc(nn23)Nc2ccc(cc2)OCCCN1    1 to 10 µM

Item: O=C1CCCCCCOc2ccc(cc2)-c2ccc3cnc(nn23)Nc2ccc(cc2)N2CCN(CCCN1)CC2 | GI50: 1 to 10 µM

Given item COc1cc2ccc1Nc1ncc3ccc(n3n1)-c1ccc(cc1)OCCOCC(=O)NCCCO2 , the value recorded as its GI50 is 1 to 10 µM

Item: CN1CCCn2cc(cn2)Nc2ncc3ccc(n3n2)-c2ccc(cc2)OCC1 | GI50: < 1 µM

Entry CS(=O)(=O)N1CCCn2cc(cn2)Nc2ncc3ccc(n3n2)-c2ccc(cc2)OCC1 , GI50 reported as < 1 µM

====

- measured.target: Ba/F3 FLT3 (ITD) (Homo sapiens, UniProt P36888, cells depend on it, form not given)
- measurement.notes: Ba/F3 cell growth inhibition (CellTiter-Glo, 72 hours)
- Format: cell-based
- measurement.conditions: read-out: Ba/F3 GI50s (μM) FLT3 (ITD)
- Description: Seeding 3000 cells per well in a 96-well plate. After cell stabilization, treat the cells with compounds diluted in […] at a ⅓ serial dilution and culture for 72 hours. Following treatment with CellTiter-Glo, luminescence is produced only in the presence of ATP, as luciferase degrades luciferin. Luminescence values were measured using Envision (PerkinElmer). Based on the measured luminescence values, the concentration of compounds causing cell death was calculated to determine the GI50 value. […]
measurement.name: GI50

Below, 4 compounds whose answers are already recorded.
O=C1CCCCOc2ccc(cc2)-c2ccc3cnc(nn23)Nc2ccc(cc2)OCCCN1    < 1 µM
CS(=O)(=O)N1CCCn2cc(cn2)Nc2ncc3ccc(n3n2)-c2ccc(cc2)OCC1    < 1 µM
O=C1CCCCCCOc2ccc(cc2)-c2ccc3cnc(nn23)Nc2cnn(c2)C2CCN(CCCN1)CC2    < 1 µM
O=C1COCCOc2ccc(cc2)-c2ccc3cnc(nn23)Nc2cnn(c2)CCCN1    < 1 µM

Query Cc1ncsc1-c1ccc(CNC(=O)[C@@H]2C[C@@H](O)CN2C(=O)[C@@H](NC(=O)CCOCCOCCN2CCN(c3ccc(Nc4ncc5ccc(-c6cccc(NS(C)(=O)=O)c6)n5n4)cc3)CC2)C(C)(C)C)cc1 yields GI50 of 1 to 10 µM
